A collection of compounds and their measured TGI
# Test system: SK-MEL-2 melanoma
# assayProtocol: NCI tumour cell line growth inhibition, 48 h
Entry rule: numbers only, all in µM.

# count of solved cases: 5
>>> print(df.to_string())
                                   compound  assayendpoint  unitabbrev  quantitativereadout
0  Cc1nc2c(O)cc3c4c(=O)n(C)c(=O)n(C)c4n(Cc4ccccc4)c3c2nc1C            TGI          µM                 31.9
1  COc1cc2c3c(c4ccc(OC)c(OC)c4c2cc1OC)CN1CCC[C@@H]1C3            TGI          µM                0.237
2    N=c1oc2c(Br)cc(Br)cc2cc1C(=O)Nc1ccccn1            TGI          µM                 91.8
3  CC1=C(C(=O)Nc2ccccc2)C(c2ccc([N+](=O)[O-])cc2)C(C(=O)Nc2ccccc2)=C(C)N1            TGI          µM                 31.4
4          CCCc1cc(=O)oc2c(C=O)c(O)cc(O)c12            TGI          µM                 48.4

What measured TGI goes with Nc1ccccc1SC(CC(=O)c1ccccc1)c1ccc([N+](=O)[O-])cc1 (configuration not stated) ?
33

What measured TGI goes with "CCCCC(C(=O)N/N=C/c1ccc([N+](=O)[O-])o1)C(=O)N/N=C/c1ccc([N+](=O)[O-])o1" ?
36.1

What measured TGI goes with "O=C(NCCO)c1cc2c(cn1)[nH]c1ccccc12" ?
33.6

What measured TGI goes with "COc1ccc(/C=C/C(=O)C(C)(C)CN2CCCCC2)cc1" ?
32.7

What measured TGI goes with COc1ccc(-c2nsc3c2NC(=O)CC3c2ccc(F)cc2)cc1 (configuration not stated) ?
12

---

A collection of compounds and their measured TGI
# System: OVCAR-4 ovarian
# assayProtocol: NCI tumour cell line growth inhibition, 48 h

# count of solved cases: 5
compound	TGI
c1ccc(CSC2(SCc3ccccc3)CCCC2)cc1	> 10 µM
CC1(C)C=Cc2c(cc3oc4ccc5c(c4c(=O)c3c2O)C=CC(C)(C)O5)O1	> 100 µM
CC1=CC(=O)CC(C)(C)C1(O)/C=C/C(C)=C/C(=O)O (stereo not given)	> 100 µM
C=CCCOC(=O)CO[N+](=O)[O-]	> 100 µM
COC(=O)[C@H]1C(=O)[C@@]2(C)[C@H]([C@H](OC(=O)c3ccccc3)[C@]3(O)C[C@H](OC(=O)[C@H](O)[C@@H](NC(=O)c4ccc(F)cc4)c4ccccc4)C(C)=C1C3(C)C)[C@]1(OC(C)=O)CO[C@@H]1C[C@@H]2O	> 25 µM

Missing value: TGI, OVCAR-4 ovarian, entry "COc1ccccc1-c1cc(/C=C2\C(=O)Nc3ncc(Br)cc32)cc(Br)c1O" . Fill in?
> 25 µM

Missing value: TGI, OVCAR-4 ovarian, entry "Cc1c(-c2ccccc2)[nH]c2ccc(Cl)cc2c1=O" . Fill in?
59.7 µM

Missing value: TGI, OVCAR-4 ovarian, entry COc1ccc2c(c1O)C(=O)C(CCC(=O)O)CC2 (stereo not given) . Fill in?
> 100 µM

---

# System: DU-145 prostate
# assayProtocol: NCI tumour cell line growth inhibition, 48 h
assayEndpoint: TGI

>>> print(df.to_string())
                                   compound    result
0         CCn1ncc2c1nc(-c1ccccc1)c[n+]2[O-]  > 100 µM
1                Sc1ccc2ccccc2c1CNCc1ccccc1   69.3 µM
2  CN(C)C(=S)N1C(=S)N(c2ccccc2)C(=Nc2ccccc2)C1=Nc1ccccc1  > 100 µM
3  Cc1cccc(-c2nn3c(c2-c2ccnc4ccc(C(N)=O)cc24)CCC3)n1  > 100 µM
4  Cc1ccc(-c2cc(-c3ccc(Cl)cc3)nc(/N=C3\C(=O)N(CN4CCOCC4)c4ccccc43)n2)cc1  > 100 µM

What measured TGI goes with COc1cc(C2SCC(=O)N2Cc2ccccc2)cc(OC)c1OC (stereo unspecified) ?
> 100 µM

What measured TGI goes with "C=CC(=O)N1C/C(=C\c2ccccc2)C(=O)/C(=C/c2ccccc2)C1" ?
15.9 µM

What measured TGI goes with "Cc1cc(=O)oc2cc(SC(=O)N(C)C)ccc12" ?
> 100 µM

What measured TGI goes with "CC(C)(C)OC(=O)[C@@H]1CCC(=S)N1Cc1ccccc1" ?
> 100 µM

What measured TGI goes with "Cn1cc(-c2csc(-c3cn(C)c4ccc(Br)cc34)n2)c2cnccc21" ?
3.17 µM

What measured TGI goes with "CS/C(C#N)=C(\C#N)SC" ?
40.7 µM

---

# Test system: MDA-N
# assayProtocol: NCI tumour cell line growth inhibition, 48 h
assayEndpoint: TGI

# count of solved cases: 6
In [3]: df
Out[3]:
                                   compound  targetortestsystem    result
0  CC1(C)Oc2ccc3c(=O)c(-c4ccccc4)c(-c4ccccc4)oc3c2C1C(=O)O (centres undefined)               MDA-N  > 100 µM
1  CC1=C(C#N)C23C(=O)c4ccccc4C(O)=C2C(=O)C=CC3(O)N1 (centres undefined)               MDA-N   3.95 µM
2  CC1=CC(=O)CC(C)(C)C1(O)/C=C/C(C)=C/C(=O)O (centres undefined)               MDA-N  > 100 µM
3  C[C@H]1CC[C@H]([C@@H](C)[C@H]2[C@@H](O)C[C@H]3[C@@H]4CC[C@H]5C[C@@H](O)CC[C@]5(C)[C@H]4CC[C@]23C)NC1               MDA-N   43.8 µM
4  CN(C)CCCNC(=O)c1cc(NC(=O)c2cc(NS(=O)(=O)c3ccc4c(c3)C(=O)c3ccccc3C4=O)cn2C)cn1C               MDA-N  > 100 µM
5         CC1(C)C(C#N)=[N+]([O-])C(C)(C)N1O               MDA-N  > 100 µM

What measured TGI goes with "Cc1c(C#N)c(N)[nH]c(=S)c1C#N" ?
> 100 µM

What measured TGI goes with NC(=O)NC(=O)CCC(NS(=O)(=O)c1ccccc1)C(=O)NC(N)=O (centres undefined) ?
> 100 µM

What measured TGI goes with "Cc1nn2c(=O)c([N+](=O)[O-])c(/C=C/c3ccco3)nc2s1" ?
76.5 µM

---

# Test system: DU-145 prostate
# assayProtocol: NCI tumour cell line growth inhibition, 48 h
A collection of compounds and their measured TGI

In [3]: df
Out[3]:
                                   compound  assayendpoint     result
0   CC(C)/C(Cl)=N/OC(=O)Nc1cccc(C(F)(F)F)c1            TGI    34.5 µM
1  Nc1ccc(Oc2ccc(C3(c4ccc(Oc5ccc(N)cc5)cc4)C4CC5C6CC7CC5C3C(C7)C6C4)cc2)cc1            TGI   > 100 µM
2  O=C1/C(=C\c2ccc(F)cc2)CN(C(=O)c2ccc([N+](=O)[O-])cc2)C/C1=C\c1ccc(F)cc1            TGI  > 51.8 µM
3                         Cc1nnc2sc(Cl)nn12            TGI   > 100 µM
4   NC(=NCCCC1(c2ccccc2)CCCC1)Nc1ccc(Cl)cc1            TGI    3.29 µM
5       Cc1c(-c2ccccc2)[nH]c2ccc(Cl)cc2c1=O            TGI   > 100 µM
6                   CCCCCN1CCN(c2ncccn2)CC1            TGI   > 100 µM
7  O=c1[nH]c(=O)n(C2OC(CO)C(O)C2O)c2ncc(-c3ccc(-c4ccccc4)cc3)nc12 (stereo not given)            TGI    > 20 µM
8  O=C(Nc1cccc(NC(=O)C(=O)C2CCC3=C(Sc4ccccc4N3)C2=O)n1)C(=O)C1CCC2=C(Sc3ccccc3N2)C1=O (stereo not given)            TGI   > 100 µM

# evaluate next
What measured TGI goes with "N=C(N)/N=C(\N)c1c(-c2cc(O)ccc2O)nc2sccn12" ?
30.5 µM

---

# Test system: NCI-H460 lung
Form entry, call: pick from y (active), n (inactive)

Answer briefly: the call reported for "CC(C)CCSC1=CC(=O)c2ccccc2C1=O" in this assay.
n

Answer briefly: the call reported for "O=Cc1ccc(-c2ccc(-c3nc4ccccc4[nH]3)cc2)s1" in this assay.
n

Answer briefly: the call reported for "CCOC(=O)C(Cc1c[nH]c2ccc([N+](=O)[O-])cc12)(NC(C)=O)C(=O)OCC" in this assay.
n

Answer briefly: the call reported for "COC(=O)[C@@]1(Cc2ccccc2)[C@H]2c3cc(C(=O)N4CCCC4)n(Cc4ccc(OC)c(OC)c4)c3C[C@H]2CN1C(=O)c1ccccc1" in this assay.
n

Answer briefly: the call reported for CC(C)CC1C(=O)N2CCC[C@H]2C2(O)O[C@](NC(=O)C3C=C4c5cccc6[nH]c(Br)c(c56)C[C@H]4N(C)C3)(C(C)C)C(=O)N12 (some centres not stated) in this assay.
n

Answer briefly: the call reported for "N.N.N.N.O=NN1CCCCCC1(P(=O)([O-])[O-])P(=O)([O-])[O-].[Pt+4].[Pt+4]" in this assay.
n
